- Tested on: Nuclear hormone receptor DAF-12 (Heterodera glycines), GAL4 fusion
- METHOD: H. glycines DAF-12 receptor agonists, primary screen, cell-based, luminescence, HEK293, GAL4 fusion, UAS-luciferase (AID 687014);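 further: 0% = DMSO wells and 100% = sodium butyrate wells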
- CONDITION INFO: HEK293 GAL4-hgDAF12 UAS-luciferase reporter, agonist luminescence; at 6.8 µM; stronger effect = higher value; normalized to butyrate control
Among all 370,000 compounds or so, about 6,800 (1.8%) were called active. Only a selection was taken, and actives are over-represented in it overall.
Readings of activation for the listed compounds
Field: numeric (%). Do not append units.

CCCCN1CCN(C(=O)c2ccc3c(c2)NC(=O)C(C)(C)O3)CC1    1.81
C=C1C(C(C)C)N(C)C2=NC(c3ccccc3)CC(=O)N12 (stereo not given)    -2.06
NC(=O)c1nnsc1-c1ccc(-c2snnc2C(N)=O)cc1    2.87
CC(C)(C)c1nnc(NC(=O)C2c3ccccc3Oc3ccccc32)s1    0.43
O=C(NCCC1=CCCCC1)c1ccc(-n2cncn2)cc1    11.6
CN(C)c1ccc(/C=N/NC(=O)c2ccc(Cn3cc(Br)cn3)o2)cc1    5.9
CONc1nc2nonc2nc1NOC    -3.04
CCN(CC)S(=O)(=O)c1ccc(-c2cn3ccc(C)cc3n2)cc1    10.8

Shift focus to the following entry.
Query string: # query: activation of entry Cc1ccc(-c2csc(NCCc3nc4cc(Cl)c(Cl)cc4n3CCOCCO)n2)cc1
Result string: 0.43

* * *

- Tested on: Nuclear hormone receptor DAF-12 (Heterodera glycines), GAL4 fusion
- METHOD: H. glycines DAF-12 receptor agonists, primary screen, cell-based, luminescence, HEK293, GAL4 fusion, UAS-luciferase (AID 687014);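 further: 0% = DMSO wells and 100% = sodium butyrate wells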
- CONDITION INFO: HEK293 GAL4-hgDAF12 UAS-luciferase reporter, agonist luminescence; at 6.8 µM; stronger effect = higher value; normalized to butyrate control
In all, about 370,000 compounds went through this assay and about 6,800 (1.8%) were called active. Only a selection was taken, and actives are over-represented in it overall.
Readings of activation for the listed compounds

Solved cases (5 shown):
COc1ccc([C@H]2OC(=O)C[C@H]2C(=O)N2CCN(c3ccccc3F)CC2)cc1OC    0.07% (inactive)
CC(C)(C)n1nc(C2CC2)c(Br)c1NC(=O)c1ccccc1F    -1.55% (inactive)
CC1=C(C(=O)NC2CC(C)(C)Cc3c2cnn3-c2ccc(C)cc2)OCCO1 (stereo not given)    -2.28% (inactive)
CSCCNC(=O)c1ccc2nc(Cc3ccccc3F)oc2c1    10.5% (active)
CC(C)NC(=S)N1CCN(S(C)(=O)=O)CC1    2.81% (inactive)

Query string: # query: activation of entry COc1ccc(Cc2nc3ccc(C(=O)NCC4CCOCC4)cc3o2)cc1OC
Result string: 2.3% (inactive)

Query string: # query: activation of entry COc1ccc(C2Nc3ccccc3C(=O)N2Cc2cccs2)cc1COc1c(C)cccc1C (stereo not given)
Result string: 1.89% (inactive)

Query string: # query: activation of entry CCc1ccc(C2=CC(=O)CC(C)(C)C2=O)cc1
Result string: -0.49% (inactive)

Query string: # query: activation of entry CCOC(=O)N1CCN(C(=O)C[C@H]2C[C@@]3(C(=O)OC)C(=C[C@H](C(C)(C)C)O[C@@H]3C)N(Cc3ccc(Cl)cc3Cl)C2=O)CC1
Result string: 0% (inactive)

Query string: # query: activation of entry COc1ccc(-c2nc3n(c2Br)CCC3)cc1
Result string: 5.25% (inactive)

Query string: # query: activation of entry Cc1cc(-c2ccccc2)n2nc(C)c(-c3ccccc3)c2n1
Result string: 0.2% (inactive)

Query string: # query: activation of entry Cc1nc2ccc(C(=O)N3CCN(C(=O)C(C)(C)C)CC3)cc2n1C1CCCC1
Result string: -0.38% (inactive)

Query string: # query: activation of entry COc1ccc(C=C2CCC3C(CCCC34OCCO4)C2=O)cc1 (stereo not given)
Result string: 2.78% (inactive)

Query string: # query: activation of entry CC(C)CSc1nnc(-c2cccnc2)n1Cc1ccccc1
Result string: 0.98% (inactive)

Query string: # query: activation of entry COc1ccc(C(=O)COC(=O)CN2C(=O)C3CC=CCC3C2=O)c(OC)c1 (stereo not given)
Result string: -0.12% (inactive)

Query string: # query: activation of entry O=C(CN(C(=O)c1csnn1)c1cccc(Cl)c1)NC1CCCC1
Result string: -1.27% (inactive)

Query string: # query: activation of entry COc1ccc(NC(=O)N2CCC(Cc3ccccc3)CC2)cc1
Result string: 1.2% (inactive)

Query string: # query: activation of entry Cc1ccc(Oc2nc3ccccc3n3c(C)nnc23)cc1
Result string: 1.53% (inactive)
